Measured pIC50, listed per entry.
Biological target: cathepsin L (Rattus norvegicus)
Sequence (P07154 114-334): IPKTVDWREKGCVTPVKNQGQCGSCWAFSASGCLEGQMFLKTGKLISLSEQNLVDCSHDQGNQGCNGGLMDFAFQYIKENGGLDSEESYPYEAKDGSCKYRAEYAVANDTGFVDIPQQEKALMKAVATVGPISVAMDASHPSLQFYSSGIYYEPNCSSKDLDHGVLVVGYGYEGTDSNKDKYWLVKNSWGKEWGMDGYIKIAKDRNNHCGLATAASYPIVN
Experiment: In vitro assay procedure for cathepsin L (recombinant rat cathepsin L, N-CBZ-Phe-Arg-AMC substrate)
Details: pH 5.0, 10 min incubation at room temperature
Procedure: In vitro assay procedure for cathepsin L To 170 μl of enzyme-buffer mixture (enzyme: recombinant rat cathepsin L, diluted to give approximate 15 Fluorescence units/min, buffer: 58.8 mM sodium citrate, 1.18 mM EDTA, 235 mM sodium chloride, 5 mM DTT, pH 5.0) 10 μL of inhibitor (dissolved in DMSO) is added. […] Reading is followed up for 10 min on a Fluoroskan fluorescence reader (excitation at 380 nm emission at 460 nm). […]
Lab note: report pIC50 as minus log10 of the concentration in molar units, number only.

Check out these entries, answers already filled in.
Cc1cccc(O[C@H]2NC(=O)[C@H]2NC(=O)[C@H](CC2CCCCC2)NC(=O)OCc2ccccc2)c1    8.52
O=C(CCc1ccccc1)N[C@@H](CC1CCCCC1)C(=O)N[C@H]1C(=O)NC1S(=O)(=O)c1ccccc1 (stereo partly shown)    7.11
N[C@@H](Cc1ccc(O[C@@H]2NC(=O)[C@H]2NC(=O)[C@H](CC2CCCCC2)NC(=O)CCc2ccccc2)cc1)C(=O)O    5.74
O=C(C=Cc1cccnc1)N[C@@H](CC1CCCCC1)C(=O)N[C@@H]1C(=O)N[C@H]1Oc1ccccc1    6.37
CC(=O)O[C@@H]1NC(=O)[C@H]1NC(=O)[C@H](CC1CCCCC1)NC(=O)OCc1ccccc1    6.11
CC(=O)O[C@@H]1NC(=O)[C@H]1NC(=O)[C@H](CC1CCCCC1)NS(=O)(=O)/C=C/c1ccccc1    5.67

# next compound below
Would you mind telling me what pIC50 value was observed for CC(=O)O[C@@H]1NC(=O)[C@H]1NC(=O)[C@H](CC1CCCCC1)NC(=O)NCc1ccccc1 ?
5.64

---

Target: cathepsin B (Rattus norvegicus)
Sequence (P00787 80-339): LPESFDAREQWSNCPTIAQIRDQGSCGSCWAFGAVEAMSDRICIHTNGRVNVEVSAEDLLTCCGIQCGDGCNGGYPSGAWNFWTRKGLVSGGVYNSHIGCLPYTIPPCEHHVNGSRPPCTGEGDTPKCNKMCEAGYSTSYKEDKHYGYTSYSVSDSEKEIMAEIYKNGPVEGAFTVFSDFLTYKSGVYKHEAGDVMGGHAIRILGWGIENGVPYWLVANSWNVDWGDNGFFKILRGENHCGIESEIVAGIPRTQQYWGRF
Assay: In vitro assay procedure for cathepsin B (recombinant rat cathepsin B, N-CBZ-Phe-Arg-AMC substrate)
Details: pH 5.1, 10 min incubation at room temperature
Measured pIC50, listed per entry.
Lab note: report pIC50 as minus log10 of the concentration in molar units, number only.

Cc1cccc(O[C@H]2NC(=O)[C@H]2NC(=O)[C@H](CC2CCCCC2)NC(=O)OCc2ccccc2)c1    6.60
O=C(CCc1ccccc1)N[C@@H](CC1CCCCC1)C(=O)N[C@H]1C(=O)NC1Sc1ccccc1 (some centres unmarked)    4.98
CC(=O)O[C@@H]1NC(=O)[C@H]1NC(=O)[C@H](CC1CCCCC1)NC(=O)OCc1ccccc1    5.06
Cc1cccc(O[C@@H]2NC(=O)[C@H]2NC(=O)[C@H](CC2CCCCC2)NC(=O)OCc2ccccc2)c1    5.16

Would you mind telling me what pIC50 value was observed for CC(=O)O[C@@H]1NC(=O)[C@H]1NC(=O)[C@H](CC1CCCCC1)NC(=O)NCc1ccccc1 ?
4.94

---

Target: UniProtKB P00787
Assay: In vitro assay procedure for cathepsin B (recombinant rat cathepsin B, N-CBZ-Phe-Arg-AMC substrate)
Conditions: pH 5.1, 10 min incubation at room temperature
Measured Endpoint: pIC50
Lab note: report pIC50 as minus log10 of the concentration in molar units, number only.

Check out these entries, answers already filled in.
N[C@@H](Cc1ccc(O[C@@H]2NC(=O)[C@H]2NC(=O)[C@H](CC2CCCCC2)NC(=O)CCc2ccccc2)cc1)C(=O)O    4.47
CC(=O)O[C@@H]1NC(=O)[C@H]1NC(=O)[C@H](CC1CCCCC1)NS(=O)(=O)/C=C/c1ccccc1    4.96
O=C(C=Cc1cccnc1)N[C@@H](CC1CCCCC1)C(=O)N[C@@H]1C(=O)N[C@H]1Oc1ccccc1    5.66
O=C(C=Cc1ccncc1)N[C@@H](CC1CCCCC1)C(=O)N[C@@H]1C(=O)N[C@H]1Oc1ccccc1    6.00
N[C@@H](Cc1ccc(O[C@H]2NC(=O)[C@H]2NC(=O)[C@H](CC2CCCCC2)NC(=O)CCc2ccccc2)cc1)C(=O)O    5.04
CC(=O)O[C@@H]1NC(=O)[C@H]1NC(=O)[C@H](CC1CCCCC1)NC(=O)CCc1ccccc1    4.94

# next compound below
Would you mind telling me what pIC50 value was observed for O=C(CCc1ccccc1)N[C@@H](CC1CCCCC1)C(=O)N[C@H]1C(=O)NC1S(=O)(=O)c1ccccc1 (stereo partly shown) ?
4.54
